Known 1° ThT Screen Log IC50 of a selection of compounds
# Target Or Test System: K18PL tau (Homo sapiens, UniProt P10636, P618L)
# Sequence (P10636 561-686 P618L): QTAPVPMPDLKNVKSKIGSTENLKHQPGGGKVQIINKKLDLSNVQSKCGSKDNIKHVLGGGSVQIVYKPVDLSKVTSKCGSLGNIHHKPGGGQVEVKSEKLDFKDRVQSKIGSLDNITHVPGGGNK
# Test Summary: Primary qHTS K18PL tau fibrillization, ThT fluorescence readout
# Assay type: biochemical
# Conditions: ThT fluorescence, printed as Log IC50
Test Readout: 1° ThT Screen Log IC50

> print(dat)
                                   compound  reading
1  CCOC(=O)c1nn(-c2ccccc2)c(=O)c2c(N)scc12 [MLS000034832]     −5.0
2  CCOC(=O)c1nn(-c2ccc(OC)cc2)c(=O)c2c(N)scc12 [MLS000062428]     −5.0
3  CCn1c(CSc2nccn2C)nc2cc(C(=O)O)ccc21 [MLS000058666]     −5.4
4  CC(N)[C@H](O)c1ccc(O)c(O)c1 (some centres unmarked) [NCGC00093795]     −5.5
5  CN(C(=S)Nc1cccnc1)c1ccc(O)cc1 [MLS000339510]     −5.7
